# System: 126254-015-R-J1-PDC complex spheroid growth, % test/control;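 also: spheroids exposed to compound for seven days; 100% = DMSO vehicle control wells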
# Experimental protocol: Anticancer human tumor 126254-015-R-J1-PDC patient-derived soft tissue sarcoma cell line growth inhibition [Asc]
# Protocol conditions: second compound 0.0316 µM; first compound 0.1 µM; hits give low values
compounds and their reported viability, T/C
State just the number; it will be interpreted in %.

Check out these entries, answers already filled in.
Q: For the compound CCN1CCN(Cc2ccc(Nc3ncc(F)c(-c4cc(F)c5nc(C)n(C(C)C)c5c4)n3)nc2)CC1 + CNC(C)C(=O)NC1CN(S(=O)(=O)c2cccc(S(=O)(=O)N3CCC4CCC(C(=O)NC(c5ccccc5)c5ccccc5)N4C(=O)C(NC(=O)C(C)NC)C3)c2)CCC2CCC(C(=O)NC(c3ccccc3)c3ccccc3)N2C1=O , give its reported viability, T/C.
Ans: 80.1

Q: For the compound O=C(c1ccc(F)c(F)c1Nc1ccc(I)cc1F)N1CC(O)([C@@H]2CCCCN2)C1 + CNC(C)C(=O)NC1CN(S(=O)(=O)c2cccc(S(=O)(=O)N3CCC4CCC(C(=O)NC(c5ccccc5)c5ccccc5)N4C(=O)C(NC(=O)C(C)NC)C3)c2)CCC2CCC(C(=O)NC(c3ccccc3)c3ccccc3)N2C1=O , give its reported viability, T/C.
Ans: 67.2

Proceeding to the next compound to report its viability, T/C.
Q: For the compound C#Cc1c(F)ccc2cc(O)cc(-c3ncc4c(N5CC6CCC(C5)N6)nc(OCC56CCCN5CC(F)C6)nc4c3F)c12 (stereo not drawn) + CNC(C)C(=O)NC1CN(S(=O)(=O)c2cccc(S(=O)(=O)N3CCC4CCC(C(=O)NC(c5ccccc5)c5ccccc5)N4C(=O)C(NC(=O)C(C)NC)C3)c2)CCC2CCC(C(=O)NC(c3ccccc3)c3ccccc3)N2C1=O , give its reported viability, T/C.
Ans: 69.4
